Target: Mtb Lpd (Mycobacterium tuberculosis (strain ATCC 25618 / H37Rv), UniProt P9WHH9)
Assay type: biochemical
Details: read-out: LPD IC50
// returns 0 unless IC50 is strictly below 30 nM, in which case 1

Is the reported IC50 for Cc1cc(S(=O)(=O)N2CC[C@H]2C(=O)Nc2ccc(N3CCOCC3)c(Cl)c2)c2[nH]c(C#N)cc2c1 strictly below 30 nM?
0

Is the reported IC50 for CN(CC(=O)Nc1ccn(C)c(=O)c1)S(=O)(=O)c1cc(C(F)F)cc2cn[nH]c12 strictly below 30 nM?
0

Is the reported IC50 for Cc1cc(S(=O)(=O)N2CC[C@H]2C(=O)Nc2ccc3cnccc3c2)c2[nH]ncc2c1 strictly below 30 nM?
1

Is the reported IC50 for Cc1cc(S(=O)(=O)N(C)CC(=O)Nc2ccn(C)c(=O)c2)c2[nH]c(C#N)cc2c1 strictly below 30 nM?
0

Is the reported IC50 for Cc1cc(S(=O)(=O)N2CC[C@H]2C(=O)NCC#N)c2[nH]ncc2c1 strictly below 30 nM?
0

Is the reported IC50 for O=C(Nc1ccc2c(c1)OCCN2C1CCOCC1)[C@@H]1CCN1S(=O)(=O)c1cc(Cl)cc2cn[nH]c12 strictly below 30 nM?
0

The reported numbers originate from patent US20240132480A1.
